study-target: BRD4(BD1) (Homo sapiens, UniProt O60885)
Construct: His; made in house
protocol-details: BRD4 Alphalisa binding assay
pIC50: −log10 of the molar value.
endpoint-name: pIC50

*Q* # pIC50 lookup, item Cc1sc2c(c1C)C(c1ccc(Cl)cc1)=NC1(CC1)c1nnc(C)n1-2 [Compound 214]
*A* > 6.30

---

study-target: BRD4(BD1) (Homo sapiens)
Construct: His; made in house
protocol-details: BRD4 Alphalisa binding assay
assay-conditions: BRD4(BD1) 30 nM, biotinylated H4-tetraacetyl peptide 200 nM; read-out: BRD4 Alphascreen IC50
pIC50: −log10 of the molar value.
Assignment: determine reported pIC50 for the given compounds.

Some solved entries appear below for comparison.
INSERT INTO measurements (sample_smiles, measured_result) VALUES
  ('Cc1nsc2c1C(c1ccc(Cl)cc1)=NC1(CC1)c1nnc(C)n1-2', '< 6.00'),
  ('CCNC[C@@H]1C[C@]12N=C(c1ccc(Cl)cc1)c1c(sc(C)c1C)-n1c(C)nnc12', '> 6.30'),
  ('Cc1sc2c(c1C)C(c1ccc(Cl)cc1)=N[C@]1(C[C@H]1CN)c1nnc(C)n1-2', '> 6.30'),
  ('Cc1noc2c1-c1cn(C)nc1C(c1ccc(Cl)cc1)=NC2', '< 6.00'),
  ('Cc1sc2c(c1C)C(c1ccc(Cl)cc1)=NC1(COC1)c1nnc(C)n1-2', '> 6.30');

Required: pIC50, one value per compound below.
1. Cc1nnc2n1-c1ccccc1C(c1ccc(Cl)cc1)=NC21CC1
2. Cc1sc2c(c1C)C(c1ccc(Cl)cc1)=N[C@@]1(C[C@@H]1C)C(=O)N2
3. Cc1sc2c(c1C)C(c1ccc(N)cc1)=N[C@]1(C[C@H]1C)c1nnc(C)n1-2

*A*
["> 6.30", "< 6.00", "> 6.30"]

---

study-target: BRD4(BD1) (Homo sapiens)
Construct: His; made in house
protocol-details: BRD4 Alphalisa binding assay
assay-conditions: BRD4(BD1) 30 nM, biotinylated H4-tetraacetyl peptide 200 nM; read-out: BRD4 Alphascreen IC50
Description: IC50 Measurements for Inhibitors Using BRD4 Alphalisa Binding Assay His/[…] epitope tagged BRD4 BD142-168 was cloned, expressed and purified to homogeneity. BRD4 binding and inhibition was assessed by monitoring the engagement of biotinylated H4-tetraacetyl peptide (Millipore #12-379) with the target using the AlphaLisa technology (Perkin-Elmer). […] After three hours equilibration plates were read on an Envision instrument and IC50s calculated using a four parameter non-linear curve fit.
pIC50: −log10 of the molar value.
endpoint-name: pIC50

INSERT INTO results (sample_smiles, endpoint_name, measured_result) VALUES
  ('COC[C@H]1C[C@@]12N=C(c1ccc(Cl)cc1)c1c(sc(C)c1C)-n1c(C)nnc12', 'pIC50', '> 6.30'),
  ('Cc1sc2c(c1C)C(c1ccc(Cl)cc1)=N[C@]1(C[C@H]1CO)c1nnc(C)n1-2', 'pIC50', '> 6.30'),
  ('Cc1sc2c(c1C)C(c1ccc(Cl)cc1)=N[C@@]1(C[C@@H]1C)c1nnc(C)n1-2', 'pIC50', '> 6.30'),
  ('Cc1sc2c(c1C)C(c1ccc(Cl)cc1)=NC1(CNC1)c1nnc(C)n1-2', 'pIC50', '< 6.00');

Required: pIC50, one value per compound below.
1. CCNC(=O)[C@@H]1C[C@@]12N=C(c1ccc(Cl)cc1)c1c(sc(C)c1C)-n1c(C)nnc12
2. Cc1sc2c(c1C)C(c1ccc(Cl)cc1)=NC1(CCC1)c1nnc(C)n1-2
3. Cc1sc2c(c1C)C(c1ccc(Cl)cc1)=N[C@]1(C[C@H]1C)c1nnc(C)n1-2
4. Cc1sc2c(c1C)C(c1ccc(Cl)cc1)=N[C@@]1(C[C@@H]1CO)c1nnc(C)n1-2

*A*
1. < 6.00
2. > 6.30
3. > 6.30
4. > 6.30
